# system_name: Recombinant human MASP2 enzyme (fragment corresponding to amino acids 297-686, C-terminal His Tag) (human, UniProt O00187 297-686)
# Sequence (O00187 other isoform, or with tags, fused parts or gaps limits assumed): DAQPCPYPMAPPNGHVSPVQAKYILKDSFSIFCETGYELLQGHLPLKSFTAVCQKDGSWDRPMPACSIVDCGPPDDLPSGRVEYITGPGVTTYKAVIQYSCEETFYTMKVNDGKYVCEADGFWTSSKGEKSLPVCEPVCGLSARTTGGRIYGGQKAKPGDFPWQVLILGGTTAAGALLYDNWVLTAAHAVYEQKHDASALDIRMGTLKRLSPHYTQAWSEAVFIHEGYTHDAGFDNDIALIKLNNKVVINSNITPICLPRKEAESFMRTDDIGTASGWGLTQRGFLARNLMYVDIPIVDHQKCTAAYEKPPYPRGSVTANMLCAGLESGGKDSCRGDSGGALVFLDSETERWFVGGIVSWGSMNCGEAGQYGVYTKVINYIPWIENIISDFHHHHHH
# protocol_details: cell-based or functional assay
Numbered stars: 1 amine (or outer) side, 2 acyl side, 3 side chain; on linkers, the order of the positions; unused ones are H or OH. Bridge positions count the residues as written; N and C are the ends. Square brackets hold non-standard residues; d marks the D form. Ends that are not written are not given here. X13 = (2S)‑2‑amino‑3‑(1-methylcyclopropyl)propanoic acid, CC1(C[C@H](N[*:1])C(=O)[*:2])CC1; Pen = CC(C)(S)[C@H](N)C(=O)O; Sar = CNCC(=O)O
property_name: human MASP2 IC50 (nM)
Numbers only, in nM.

Quick one: give measured human MASP2 IC50 for [Sar]ICSRS[X13]PPI[Pen]IP-NH2 (disulfide 3-11; N-terminus assumed; SMILES CC[C@H](C)[C@H](NC(=O)CNC)C(=O)N[C@H]1CSSC(C)(C)[C@@H](C(=O)N[C@H](C(=O)N2CCC[C@H]2C(N)=O)[C@@H](C)CC)NC(=O)[C@H]([C@@H](C)CC)NC(=O)[C@@H]2CCCN2C(=O)[C@@H]2CCCN2C(=O)[C@H](CC2(C)CC2)NC(=O)[C@H](CO)NC(=O)[C@H](CCCNC(=N)N)NC(=O)[C@H](CO)NC1=O) [((N-Me)G)-IC+SRS-((2S)-2-amino-3-(1-methylcyclopropyl)propanoic acid)-PPI-(Pen)+IP-NH2] 17
